- Tested on: Proteus mirabilis IFO 3849
- EXPERIMENTAL_PROTOCOL: Antibacterial test (MIC), Proteus mirabilis IFO 3849
- Format: cell-based
- EXPERIMENTAL_PARAMETERS: medium TSA
Quick reference for Minimum inhibitory concentration (MIC) among some compounds
Number only, in µg/mL; omit the unit.

For Proteus mirabilis IFO 3849, provide Minimum inhibitory concentration (MIC) of O=C(NC1CN(S(=O)(=O)[O-])C1=O)C(NC(=O)N1CCN(N=Cc2ccco2)C1=O)c1cccs1.[Na+] (stereo not shown) please.
0.78

Reported Minimum inhibitory concentration (MIC) for Proteus mirabilis IFO 3849, given CCN1CCN(C(=O)NC(C(=O)NC2CN(S(=O)(=O)[O-])C2=O)c2cccs2)C(=O)C1=O.[Na+] (racemic) ?
0.78

Missing value: Minimum inhibitory concentration (MIC), Proteus mirabilis IFO 3849, entry CCCCCCCCN1CCN(C(=O)NC(C(=O)NC2CN(S(=O)(=O)[O-])C2=O)c2cccs2)C(=O)C1=O.[Na+] (stereo not shown) . Fill in?
3.13

Fill in the recorded Minimum inhibitory concentration (MIC) for this compound, with Proteus mirabilis IFO 3849 as test system: CCN1CCN(C(=O)N[C@@H](C(=O)NC2CN(S(=O)(=O)[O-])C2=O)c2cccs2)C(=O)C1=O.[Na+] (stereo partly shown)
0.78
